# test-protocol: qHTS for Inhibitors of Inflammasome Signaling: IL-1-beta AlphaLISA Primary Screen; also: % is scaled to controls: 0 for no effect and ±100 for the full control effect
# measurement-setup: THP-1 LPS/ATP IL-1B secretion, 16 h; at 57.5 µM
About 17,000 (4.7%) of roughly 360,000 compounds were called active. Not shown: some 5% with an inconclusive outcome. Rule as the data show it: active = activity change below about -50%; inconclusive = mostly about -30% to -49%; inactive = weaker than that. Shown is part of a subset that was picked to be rich in actives.
Response enum: 1 (yes) for active, 0 (no) for inactive

Solved cases (10 shown):
- compound: "CCCCCCCNC(=O)C1(CC2CC(c3cccc(Br)c3)=NO2)CCN(C(=O)c2cc(OCC)c(OCC)c(OCC)c2)CC1 (stereo unspecified)"
  qualitative-label: "0 (no)"
- compound: "Fc1cccc(Cc2c(-c3cccc(Cl)c3)nc3ccc(Br)cn23)c1"
  qualitative-label: "0 (no)"
- compound: "C[C@@H]1CN([C@@H](C)CO)C(=O)c2cc(Br)cnc2O[C@@H]1CN(C)C(=O)C1CCCCC1"
  qualitative-label: "0 (no)"
- compound: "Cc1coc2c(O)cc3c(c12)OC1(N2CCCCC2)C(=O)NCCCC31 (stereo unspecified)"
  qualitative-label: "1 (yes)"
- compound: "Cc1ccc(C)c(OCCC(=O)OCC(=O)NC(=O)NCc2ccccc2)c1"
  qualitative-label: "1 (yes)"
- compound: "CC(Oc1cccc(NC(=O)c2cccs2)c1)C(=O)c1ccccc1 (stereo unspecified)"
  qualitative-label: "1 (yes)"
- compound: "Cc1ccc(C)c(OCCC(=O)OCC(=O)N2CCN(c3ccccc3)CC2)c1"
  qualitative-label: "0 (no)"
- compound: "CC(=O)Nc1cccc(-c2cc(NC=O)c3ncc(-c4ccc(F)c(Cl)c4)n3c2)c1"
  qualitative-label: "0 (no)"
- compound: "CCOC(=O)/C(=N\\Nc1cc(Cl)ccc1Cl)N1CCN(C)CC1"
  qualitative-label: "0 (no)"
- compound: "CCOCCCNC(=S)Nc1ccc2nc(N3CCN(CC)CC3)cc(C)c2c1"
  qualitative-label: "0 (no)"

[Q] State the result this test recorded for Cc1ccc(C(=O)N/C(=C\c2cn(S(=O)(=O)N(C)C)c3ccccc23)C(=O)N2CCCC2)cc1 .
[A] 0 (no)

* * *

# test-protocol: qHTS for Inhibitors of Inflammasome Signaling: IL-1-beta AlphaLISA Primary Screen
# measurement-setup: THP-1 LPS/ATP IL-1B secretion, 16 h; at 57.5 µM, stronger effect = lower value
About 17,000 (4.7%) of roughly 360,000 compounds were called active. About 5% were inconclusive and are not listed. The sample as a whole holds a higher share of actives than the screen did.
measurement-name: activity change (%)
One number for each entry, in %.

- compound: "COc1ccc(-c2ccc3c(c2)[C@@H]2C[C@H](N(C)S(=O)(=O)c4ccccc4)[C@H]([C@H](C)O)C(=O)N2CC3)cc1"
  unit-text: "%"
  activity change: -14.6
- compound: "CCCCCCSc1ccc([C@@H]2[C@@H]3C(=O)N(CC)C(=O)[C@@H]3[C@]3(C(=O)OC)CCCCN23)cc1OC"
  unit-text: "%"
  activity change: -74.8
- compound: "COC(=O)c1ccc(Oc2nc(Nc3ccc(F)cc3)nc(N3CCCC3)n2)cc1"
  unit-text: "%"
  activity change: -60.2
- compound: "CCCCCCSc1ccc([C@@H]2[C@H]3C(=O)N(CC)C(=O)[C@H]3[C@]3(C(=O)OC)CCCCN23)cc1"
  unit-text: "%"
  activity change: 144
- compound: "COC(=O)[C@@]1(Cc2ccc(F)cc2)[C@H]2c3cc(C(=O)N4CCCC4)n(C[C@H](O)CO)c3C[C@H]2CN1C(=O)c1ccccc1"
  unit-text: "%"
  activity change: -0.432

Please report activity change for every entry that follows.
1. CCCOC1CCCN(Cc2cn(C)nc2-c2ccccc2F)C1 (centres undefined)
2. CCOC(=O)C1=C(c2ccccc2)NC(=O)NC1c1cc(OC)c(OC)cc1OC (centres undefined)
3. CC(C)Cn1cc(-c2cncc3nccn23)cn1
4. COCc1[nH]nc2c1C(C1C=CCCC1)C(C#N)=C(N)O2 (centres undefined)

[A]
1: -7.48; 2: -5.44; 3: -7.82; 4: -72.1
